# TGI per entry
system: DMS 273 small cell lung; assay: NCI tumour cell line growth inhibition, 48 h

molecule	TGI
Cc1c(C(=O)CC(=O)C(=O)Nc2ccc(Cl)c(Cl)c2)[n+](=O)c2ccccc2n1[O-]	49.9 µM
CC(Sc1ccccc1)C(CO)(CO)[N+](=O)[O-] (stereo not given)	> 100 µM
COC1C=CC(C(=O)[N+]2=Cc3[nH]c4ccccc4c3CC2)O1 (stereo not given)	> 100 µM
CCc1ccccc1NC(=O)CCc1n[nH]c(=S)o1	> 100 µM
C/C=C/C=N/N(C(=O)c1cc([N+](=O)[O-])cc([N+](=O)[O-])c1)C1=NC(c2ccccc2)C(c2ccccc2)=NN1 (stereo not given)	> 100 µM
CCOC(=O)C(Cc1ccccc1)NC(=O)c1ccc(N=NN(C)C)cc1 (stereo not given)	> 100 µM
CN=C1Nc2ccc(Cl)cc2C(c2ccccc2)=NN1C	> 100 µM
O=C(O)C1NCCc2c1[nH]c1ccccc21 (stereo not given)	> 100 µM
COc1ccc(CNC2=C(NC(C)=O)C(=O)c3ccccc3C2=O)cc1	> 50 µM
CCCN1CN(C(C(=O)N[C@@H]2C(=O)N3C2SC(C)(C)C3C(=O)O)c2ccccc2)CSC1=S (stereo not given in full)	> 100 µM
